# Measured Target: H1/Cal HA (biotinylated full length trimeric HA, A/California/07/2009) (Influenza A virus, UniProt C3W5X2)
# Assay Comment: AlphaLISA competition assay with HB80.4, H1/Cal HA
# From the text: Binding competition studies were designed to test compounds of the invention for competition with other well characterized HA binding proteins (such as e.g. CR9114, CR6261 and HB80.4) with known epitopes on HA. The epitopes where either located at the stem of the HA (viral membrane proximal part of HA) or, for control purposes, at the head of HA (viral membrane distal part of HA). […]
pIC50: −log10 of the molar value.
pIC50 values, listed per item

Compound	pIC50
CSCC[C@H](NC(=O)CNC(=O)CNC(=O)[C@H](C)NC(=O)[C@@H](NC(=O)CNC(=O)[C@H](CC(C)C)NC(=O)[C@@H]1CCCN1C(=O)[C@H](CC(=O)O)NC(=O)[C@H](CCCNC(=N)N)NC(=O)[C@H](Cc1ccc(O)cc1)NC(=O)[C@H](CC(C)C)NC(=O)[C@H](CO)NC(=O)[C@@H](NC(=O)CCC(=O)O)C(C)C)C(C)C)C(=O)NCC(=O)N[C@H](C(=O)N[C@@H](Cc1ccc(O)cc1)C(N)=O)C(C)C [CP141073]	5.70
CSCC[C@@H]1NC(=O)CNC(=O)CNC(=O)[C@H](C)NC(=O)[C@H](C(C)C)NC(=O)CNC(=O)[C@H](CC(C)C)NC(=O)[C@@H]2CCCN2C(=O)[C@H](CC(=O)O)NC(=O)[C@H](CCC(=O)O)NC(=O)[C@H](Cc2ccc(O)cc2)NC(=O)[C@H](CC(C)C)NC(=O)CNC1=O [CP141088]	6.60
CSCC[C@@H]1NC(=O)CNC(=O)CNC(=O)[C@H](C)NC(=O)[C@H](C(C)C)NC(=O)CNC(=O)[C@H](CC(C)C)NC(=O)[C@@H]2CCCN2C(=O)[C@H](CC(=O)O)NC(=O)[C@H](CCC(=O)O)NC(=O)[C@H](Cc2ccc(O)cc2)NC(=O)[C@H](CC(C)C)NC(=O)[C@@H](NC(=O)CCC(=O)O)CSSC[C@@H](C(N)=O)NC(=O)CNC1=O [CP141069]	6.50
CSCC[C@H](NC(=O)CNC(=O)CNC(=O)[C@H](C)NC(=O)[C@@H](NC(=O)CNC(=O)[C@H](CC(C)C)NC(=O)[C@@H]1CCCN1C(=O)[C@H](CC(=O)O)NC(=O)[C@H](CCC(=O)O)NC(=O)[C@H](Cc1ccc(O)cc1)NC(=O)[C@H](CC(C)C)NC(=O)[C@H](CO)NC(=O)[C@@H](NC(=O)CCC(=O)O)C(C)C)C(C)C)C(=O)NCC(=O)N[C@H](C(=O)N[C@@H](Cc1ccc(O)cc1)C(N)=O)C(C)C [CP141074]	5.40
CSCC[C@@H]1NC(=O)CNC(=O)CNC(=O)[C@H](C)NC(=O)[C@H](C(C)C)NC(=O)CNC(=O)[C@H](CC(C)C)NC(=O)[C@@H]2CCCN2C(=O)[C@H](CC(=O)O)NC(=O)[C@H](CCC(=O)O)NC(=O)[C@H](Cc2ccc(O)cc2)NC(=O)[C@H](CC(C)C)NC(=O)[C@H](CO)NC(=O)[C@H]2CCCN2C(=O)CNC(=O)[C@H](C(C)C)NC(=O)CNC1=O [CP141083]	5.30

====

# Measured Target: H1/Cal HA (biotinylated full length trimeric HA, A/California/07/2009) (Influenza A virus, UniProt C3W5X2)
# Assay Comment: AlphaLISA competition assay with HB80.4, H1/Cal HA
Where a SMILES comes first, the peptide text is derived from it.
Endpoint Name: IC50

Compound	Endpoint Name	Result
CSCC[C@@H]1NC(=O)[C@H](CCC(=O)O)NC(=O)CNC(=O)[C@H](C)NC(=O)[C@H](C(C)C)NC(=O)CNC(=O)[C@H](CC(C)C)NC(=O)[C@@H]2CCCN2C(=O)[C@H](CC(=O)O)NC(=O)[C@H](CCCNC(=N)N)NC(=O)[C@H](Cc2ccc(O)cc2)NC(=O)[C@@H](NC(=O)CCC(=O)O)CSSC[C@@H](C(N)=O)NC1=O	IC50	15800 nM
CCCC[C@@H]1NC(=O)[C@H](CCC(=O)O)NC(=O)CNC(=O)[C@H](C)NC(=O)[C@H](C(C)C)NC(=O)CNC(=O)[C@H](CC(C)C)NC(=O)[C@@H]2CCCN2C(=O)[C@H](CC(=O)O)NC(=O)[C@H](CCCNC(=N)N)NC(=O)[C@H](Cc2ccc(O)cc2)NC(=O)[C@@H](NC(=O)CCC(=O)O)CSSC[C@@H](C(N)=O)NC1=O	IC50	25100 nM
CSCC[C@@H]1NC(=O)CNC(=O)CNC(=O)[C@H](C)NC(=O)[C@H](C(C)C)NC(=O)CNC(=O)[C@H](CC(C)C)NC(=O)[C@@H]2CCCN2C(=O)[C@H](CC(=O)O)NC(=O)[C@H](CCC(=O)O)NC(=O)[C@H](Cc2ccc(O)cc2)NC(=O)[C@H](CC(C)C)NC(=O)CNC(=O)[C@H]2CCCN2C(=O)CNC1=O	IC50	794 nM
CSCC[C@@H]1NC(=O)CNC(=O)CNC(=O)[C@H](C)NC(=O)[C@H](C(C)C)NC(=O)CNC(=O)[C@H](CC(C)C)NC(=O)[C@@H]2CCCN2C(=O)[C@H](CC(=O)O)NC(=O)[C@H](CCC(=O)O)NC(=O)[C@H](Cc2ccc(O)cc2)NC(=O)[C@H](CC(C)C)NC(=O)CNC(=O)CNC1=O	IC50	501 nM
CSCC[C@@H]1NC(=O)[C@H](CCC(=O)O)NC(=O)CNC(=O)[C@H](C)NC(=O)[C@H](C(C)C)NC(=O)CNC(=O)[C@H](CC(C)C)NC(=O)[C@@H]2CCCN2C(=O)[C@H](CC(=O)O)NC(=O)[C@H](CCCNC(=N)N)NC(=O)[C@H](Cc2ccc(O)cc2)NC(=O)[C@H](CC(C)C)NC(=O)[C@@H](NC(=O)CCC(=O)O)CSSC[C@@H](C(N)=O)NC(=O)CNC1=O [CP141071] (HELM PEPTIDE1{[O=C(O)CCC(=O)[*:2]].C.L.Y.R.D.P.L.G.V.A.G.E.M.G.C.[am]}$PEPTIDE1,PEPTIDE1,2:R3-16:R3$$$V2.0)	IC50	501 nM
CC[C@@H]1NC(=O)[C@H](C(C)C)NC(=O)CNC(=O)[C@H](CCCc2ccccc2)NC(=O)[C@@H]2CCCN2C(=O)[C@H](CC(=O)O)NC(=O)[C@H](CCCNC(=N)N)NC(=O)[C@H](Cc2ccc(O)cc2)NC(=O)[C@@H](NC(=O)CCC(=O)O)CSSC[C@@H](C(N)=O)NC(=O)[C@H](CCSC)NC(=O)[C@H](CCC(=O)O)NC(=O)CNC1=O [CP141093] (HELM PEPTIDE1{[O=C(O)CCC(=O)[*:2]].C.Y.R.D.P.[O=C([C@H](CCCc1ccccc1)N[*:1])[*:2]].G.V.[Abu].G.E.M.C.[am]}$PEPTIDE1,PEPTIDE1,2:R3-14:R3$$$V2.0)	IC50	10000 nM
CSCC[C@@H]1NC(=O)CNC(=O)CNC(=O)[C@H](C)NC(=O)[C@H](C(C)C)NC(=O)CNC(=O)[C@H](CC(C)C)NC(=O)[C@@H]2CCCN2C(=O)[C@H](CC(=O)O)NC(=O)[C@H](CCC(=O)O)NC(=O)[C@H](Cc2ccc(O)cc2)NC(=O)[C@@H](NC(=O)CCC(=O)O)CSSC[C@@H](C(N)=O)NC1=O	IC50	6310 nM
CSCC[C@@H]1NC(=O)CNC(=O)CNC(=O)[C@H](C)NC(=O)[C@H](C(C)C)NC(=O)CNC(=O)[C@H](CC(C)C)NC(=O)[C@@H]2CCCN2C(=O)[C@H](CC(=O)O)NC(=O)[C@H](CCC(=O)O)NC(=O)[C@H](Cc2ccc(O)cc2)NC(=O)[C@H](CC(C)C)NC(=O)[C@H](CO)NC(=O)[C@H](C(C)C)NC(=O)[C@@H]2CCCN2C(=O)[C@H]2CCCN2C(=O)[C@H](Cc2ccc(O)cc2)NC(=O)[C@H](C(C)C)NC(=O)CNC1=O	IC50	15.8 nM
CSCC[C@@H]1NC(=O)CNC(=O)CNC(=O)[C@H](C)NC(=O)[C@H](C(C)C)NC(=O)CNC(=O)[C@H](CC(C)C)NC(=O)[C@@H]2CCCN2C(=O)[C@H](CC(=O)O)NC(=O)[C@H](CCCNC(=N)N)NC(=O)[C@H](Cc2ccc(O)cc2)NC(=O)[C@H](CC(C)C)NC(=O)[C@@H](NC(=O)CCC(=O)O)CSSC[C@@H](C(N)=O)NC(=O)CNC1=O	IC50	100 nM
CCCC[C@H](NC(=O)CNC(=O)CNC(=O)[C@H](C)NC(=O)[C@@H](NC(=O)CNC(=O)[C@H](CC(C)C)NC(=O)[C@@H]1CCCN1C(=O)[C@H](CC(=O)O)NC(=O)[C@H](CCCNC(=N)N)NC(=O)[C@H](Cc1ccc(O)cc1)NC(=O)[C@H](CC(C)C)NC(=O)[C@H](CO)NC(=O)[C@@H](NC(=O)CCC(=O)O)C(C)C)C(C)C)C(=O)NCC(=O)N[C@H](C(=O)N[C@@H](Cc1ccc(O)cc1)C(N)=O)C(C)C	IC50	3160 nM
